B1: library; a variant is named by its letters at N, in order (parent)
chain: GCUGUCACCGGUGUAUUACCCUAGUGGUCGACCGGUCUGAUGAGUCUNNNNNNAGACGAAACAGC

Variants of: B1
TEST_DESCRIPTION: normalized RNA/DNA level without ligand (relative to sTRSVctl = 100) (log10 (% of sTRSVctl)); ligand: hypoxanthine (xanthine aptamer); higher = less ribozyme self-cleavage, higher mRNA level
PROTOCOL_CONDITIONS: HEK293T, reporter: mCherry (pCS4076), ligand present: no
MEASUREMENT_LABEL: normalized RNA/DNA level without ligand (log10)
Numbers only.

AGCAUC = 1.96
GUGAGG = 1.2
ACUGUA = 1.78
CACAUU = 1.86

Dear colleague, could you please provide normalized RNA/DNA level without ligand (log10) for the variants listed below?
1. AUGCCA
2. UCCGUU
3. UGAUUA
4. CACUAG
5. CUUUAC
6. GGUCAG
7. AUACCU
8. GGGAAG

1. 1.82
2. 1.93
3. 1.88
4. 1.76
5. 1.81
6. 1.69
7. 1.9
8. 1.18

Provide the reported normalized RNA/DNA level without ligand (log10) of each entry below, same order.
1. UUACAG
2. GUUCUA

1. 1.63
2. 1.89

Give normalized RNA/DNA level without ligand (log10) for all variants that follow.
1. UGUGGA
2. GUGGAG
3. UGAGGA
4. CAUUAC
5. CACUUU
6. ACUCAA

1.52
1.28
1.5
1.82
1.85
1.75
